The values you see were collected from patent US20230127946A1.

target.of.assay: T1, Human IGF-1R protein (human, UniProt P08069 31-932)
T1 construct: Bought protein; also called human IGF-1R (ARCO, No. IGR-H5229)
procedure.summary: BLI (Octet RED96), antibody captured on AHC biosensor, IGF-1R in solution, 1:1 model
measurement.name: pKd
Numbers only, as −log10 of the molar value.

Sample answers from the record:
INSERT INTO measurements (binder, measurement_name, val) VALUES
  ('PHP1003-2 (antibody, human IgG1, kappa, L234A L235A, V domains shown, Variable and constant regions are directly spliced) VH: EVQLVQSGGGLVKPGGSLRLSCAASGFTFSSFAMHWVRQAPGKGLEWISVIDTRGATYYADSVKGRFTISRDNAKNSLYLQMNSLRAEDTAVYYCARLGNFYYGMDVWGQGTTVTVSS VL: EIVLTQSPGTLSVSPGERATLSCRASQSIGSSLHWYQQKPGQAPRLLIKYASQSLSGIPDRFSGSGSGTDFTLTISRLEPEDFAVYYCHQSSRLPHTFGQGTKVEIKR', 'pKd', 8.42),
  ('PHP1003-6 (antibody, human IgG1, kappa, L234A L235A, V domains shown, Variable and constant regions are directly spliced) VH: QVQLQESGGGVVQPGRSLRLSCSASGFTFSDYYMYWVRQAPGKGLEWVAYITNYGGSTYYPDTVKGRFTISRDNAKNTLFLQMDSLRPEDTGVYFCARQSNYDYDGWFAYWGQGTPVTVSS VL: DIQLTQSPSSLSASVGDRVTITCKASQEVGTAVAWYQQKPGKAPKLLIYWASTRHTGVPSRFSGSGSGTDFTFTISSLQPEDIATYFCQQYSNYPLTFGQGTKVEIKR', 'pKd', 8.95),
  ('PHP1003-5 (antibody, human IgG1, kappa, L234A L235A, V domains shown, Variable and constant regions are directly spliced) VH: EVQLLESGGGLVQPGGSLRLSCTASGFTFSSYAMNWVRQAPGKGLEWVSAISGSGGTTFYADSVKGRFTISRDNSRTTLYLQMNSLRAEDTAVYYCAKDLGWSDSYYYYYGMDVWGQGTTVTVSS VL: DIQMTQFPSSLSASVGDRVTITCRASQGIRNDLGWYQQKPGKAPKRLIYAASRLHRGVPSRFSGSGSGTEFTLTISSLQPEDFATYYCLQHNSYPCSFGQGTKLEIKR', 'pKd', 9.15),
  ('PHP1003-4 (antibody, human IgG1, kappa, L234A L235A, V domains shown, Variable and constant regions are directly spliced) VH: EVQLVQSGAEVKKPGSSVKVSCKASGGTFSSYAISWVRQAPGQGLEWMGGIIPIFGTANYAQKFQGRVTITADKSTSTAYMELSSLRSEDTAVYYCARAPLRFLEWSTQDHYYYYYMDVWGKGTTVTVSS VL: SSELTQDPAVSVALGQTVRITCQGDSLRSYYATWYQQKPGQAPILVIYGENKRPSGIPDRFSGSSSGNTASLTITGAQAEDEADYYCKSRDGSGQHLVFGGGTKLTVLR', 'pKd', 8.23);

Moving on to another binder below.
Record summary for PHP1003-7 (antibody, human IgG1, kappa, L234A L235A, V domains shown, Variable and constant regions are directly spliced) VH: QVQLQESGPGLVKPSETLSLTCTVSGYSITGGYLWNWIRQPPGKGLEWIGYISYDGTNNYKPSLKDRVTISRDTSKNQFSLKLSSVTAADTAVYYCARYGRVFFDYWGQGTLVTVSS VL: DIVMTQSPLSLPVTPGEPASISCRSSQSIVHSNGNTYLQWYLQKPGQSPQLLIYKVSNRLYGVPDRFSGSGSGTDFTLKISRVEAEDVGVYYCFQGSHVPWTFGQGTKVEIKR : reported pKd = 8.05
